experiment: chemical genetic growth profiling, strain panel (AID 1159580);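 also: tested at 20 µM; growth read once vehicle control cultures reached saturation at 30 °C; 1 = growth at the plate median or of vehicle wells; lower values mean less growth of the strain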
condition-info: S. cerevisiae deletion strains, growth OD, locus YOL147C, strain pex11
The campaign covered roughly 5,500 compounds. About 2,000 (36%) were called active. Another 18% or so got no clear call; they are omitted. Rule as the data show it: active = normalized growth mostly below about 0.91 (no sharp cut-off); inconclusive = no clear call, values can overlap the other calls; inactive = mostly above about 0.92. The list shows a part of the results.
Outcome codes: active, inactive

| compound | group-label |
| --- | --- |
| CC(C)=CCc1c2c(c3occ(-c4ccc(O)c(O)c4)c(=O)c3c1O)C=CC(C)(C)O2 | active |
| CC(C)=CCc1c2c(c3occ(-c4ccc(O)cc4)c(=O)c3c1O)C=CC(C)(C)O2 | inactive |
| CC12CCC(O)CC1CCC1C2[C@H](O)CC2(C)C(C3=CC(=O)OC3)CCC12O (stereo partly drawn) | inactive |

---

experiment: chemical genetic growth profiling, strain panel (AID 1159580);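 also: tested at 20 µM; growth read once vehicle control cultures reached saturation at 30 °C; 1 = growth at the plate median or of vehicle wells; lower values mean less growth of the strain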
condition-info: S. cerevisiae deletion strains, growth OD, locus YOR061W, strain CKA2, hits give low values
Screen size: about 5,500 compounds; about 2,000 (36%) were called active. Another 18% or so got no clear call; they are omitted. This is one part of the list.
quantity: normalized growth

| compound | quantity | result-number |
| --- | --- | --- |
| COc1cc(C(C)=O)cc(OC)c1O | normalized growth | 0.995 |
| CC(=O)Oc1c(Cl)c(C)c2c(c1Cl)OC(=O)c1c(C)c(Cl)c(OC(C)=O)c(Cl)c1O2 | normalized growth | 0.988 |
| CC(=O)c1ccc(Cl)c(N=Cc2cc(Cl)cc(Cl)c2O)c1 | normalized growth | 0.198 |
| C/C1=C\CC(C)(C)/C=C/CC2(C)OC2CC1 (stereo unspecified) | normalized growth | 0.994 |
| Cc1ccc2c(c1)C1(C)CCCC(C)(C(=O)O)C1CC2 (stereo unspecified) | normalized growth | 0.973 |
| CC12CCC3C(CC3(C)C)C(C)(CCC1=O)O2 (stereo unspecified) | normalized growth | 1.01 |
| CNCCCC12CCC(c3ccccc31)c1ccccc12 | normalized growth | 0.991 |
| CCOC(=O)c1ccc(Cl)c(N=Cc2cc(Cl)cc(Cl)c2O)c1 | normalized growth | 0.326 |
| O=C1NC(O)=NC1(c1ccccc1)c1ccccc1 | normalized growth | 1 |
| C/C1=C/CC(C)(C)/C=C/C/C(C)=C/CC1 | normalized growth | 1.03 |
| Cc1ccc(-c2csc(-c3ccncc3)n2)cc1 | normalized growth | 0.89 |
| COC(=O)c1c(OC)cc2c(c1C)Oc1c(Cl)c(OC(C)=O)c(Cl)c(C)c1C(=O)O2 | normalized growth | 1 |
| CC(C)(C)NCC(O)c1ccc(O)c(CO)c1 (stereo unspecified) | normalized growth | 1.01 |
| CC(CCc1ccccc1)NCC(O)c1ccc(O)c(C(N)=O)c1 (stereo unspecified) | normalized growth | 1.01 |
| COC(=O)c1c(OC)cc2c(c1C)Oc1c(Cl)c(O)c(Cl)c(C)c1C(=O)O2 | normalized growth | 0.892 |
| COC(=O)c1c(C)c2c(c(C)c1OC)OC(=O)c1c(C)c(Cl)c(OC)c(Cl)c1O2 | normalized growth | 1.01 |
| CC(=O)c1cc(CC=C(C)C)c(O)c(CC=C(C)C)c1 | normalized growth | 0.978 |
| Cc1ccc2nc(-c3ccc4c(c3)OCCO4)cn2c1 | normalized growth | 0.966 |
| Cc1ccc(-n2cccc2)c(NS(=O)(=O)c2ccc(-c3ccno3)s2)c1 | normalized growth | 0.906 |
| Nc1ccc(C(=O)O)cc1 | normalized growth | 1.01 |
| CC(=O)c1ccc(O)c(CC=C(C)C)c1 | normalized growth | 0.989 |
